- Test system: NSCLC U-1810 cells
- method_summary: MTT cytotoxicity assay in NSCLC U-1810 cells
- Type: cell-based, human
quantity: cytotoxic activity in NSCLC U-1810 cells (in words)

# compound, experimental_target, recorded_measurement
measured = [
    ("C#C[C@H](O)CCCCCCCCCCC(C)CCCCCC (stereo partly drawn) [Compound 7, (3R)-14-Methylicos-1-yn-3-ol]", "NSCLC U-1810 cells", "equally active"),
    ("C#C[C@H](O)/C=C/CCCCCCCCC(C)CCCCCCCC (stereo partly drawn) [Compound 23, (3R)-14-Methyldocos-(4E)-en-1-yn-3-ol]", "NSCLC U-1810 cells", "equally active"),
    ("C#CC(=O)/C=C/CCCCCCCCC(C)CCCCCC (stereo not shown) [Compound 6, 14-Methylicos-(4E)-en-1-yn-3-one]", "NSCLC U-1810 cells", "not active"),
    ("C#CC(=O)/C=C/CCCCCCCCC/C=C\\CCCCCC [Compound 10, Docos-(4E,15Z)-dien-1-yn-3-one]", "NSCLC U-1810 cells", "not active"),
]
